Target: HDAC2 (Homo sapiens, UniProt Q92769)
Construct: EurofinPanlabs (Taipei, Taiwan)
Sequence (Q92769 whole entry): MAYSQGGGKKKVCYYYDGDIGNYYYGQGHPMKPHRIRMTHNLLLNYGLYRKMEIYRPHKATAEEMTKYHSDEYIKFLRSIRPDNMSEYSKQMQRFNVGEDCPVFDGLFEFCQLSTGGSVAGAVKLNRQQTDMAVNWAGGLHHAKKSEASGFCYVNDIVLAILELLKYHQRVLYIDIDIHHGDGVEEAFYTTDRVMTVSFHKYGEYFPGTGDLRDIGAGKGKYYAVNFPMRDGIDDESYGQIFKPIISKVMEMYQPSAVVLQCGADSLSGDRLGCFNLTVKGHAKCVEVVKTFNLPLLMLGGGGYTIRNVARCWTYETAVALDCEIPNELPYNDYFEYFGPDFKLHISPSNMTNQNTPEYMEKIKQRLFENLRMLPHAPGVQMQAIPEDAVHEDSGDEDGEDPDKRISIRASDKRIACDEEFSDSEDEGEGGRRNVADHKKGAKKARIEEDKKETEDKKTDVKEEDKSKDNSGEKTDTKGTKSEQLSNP
Assay: HDAC biochemical assay (Fluor-de-Lys), HDAC2
Details: IC50 HDAC2 / IC50 HDAC6
Attribute Measured: Selectivity ratio of HDAC2 over HDAC6

Solved entries:
compound="O=C(NO)c1ccc(CNc2cccc3cc(-c4ccco4)cnc23)cc1 [Compound 27]" attribute_measured="Selectivity ratio of HDAC2 over HDAC6" value_reported=(62)
compound="O=C(NO)c1ccc(CNc2cccc3cc(-c4ccsc4)cnc23)cc1 [Compound 29]" attribute_measured="Selectivity ratio of HDAC2 over HDAC6" value_reported=(117)
compound="O=C(NO)c1ccc(CNc2cccc3cc(-c4cccnc4)cnc23)cc1 [Compound 25]" attribute_measured="Selectivity ratio of HDAC2 over HDAC6" value_reported=(276)
compound="O=C(NO)c1ccc(CNc2cccc3cc(-c4ccncc4)cnc23)cc1 [Compound 26]" attribute_measured="Selectivity ratio of HDAC2 over HDAC6" value_reported=(336)
compound="N#Cc1cccc(-c2cnc3c(NCc4ccc(C(=O)NO)cc4)cccc3c2)c1 [Compound 22]" attribute_measured="Selectivity ratio of HDAC2 over HDAC6" value_reported=(55)

[in] Any idea what its Selectivity ratio of HDAC2 over HDAC6 is? The compound is O=C(NO)c1ccc(CNc2cccc3cc(-c4ccoc4)cnc23)cc1 [Compound 28]
[out] (157)
